Kindly supply the reported log10 of microsomal CLint at 0.8 μM values for the records listed here.
- Assay details: Intrinsic clearance (Clint) in rat liver microsomes
- Assay type: in vitro ADME
- Stated conditions: rat, liver microsomes, pH 7.4, rat liver microsomes, 0.5 mg/mL protein, NADPH, up to 30 min; second value of human/rat
Lab note - microsomal CLint at 0.8 μM converted to log10 from values in µL/min/mg.

Task: // log10 of microsomal CLint at 0.8 μM lookup, key: [2H]c1c([2H])c([2H])c(C#Cc2c([2H])c([2H])c([C@H]3N(c4cccc(C(N)=O)c4)C(=O)[C@@H](CC(=O)NC([2H])([2H])C([2H])([2H])c4ccc(OC([2H])([2H])[2H])c(OC([2H])([2H])[2H])c4)[S@@+]3[O-])c([2H])c2[2H])c([2H])c1[2H] (single isomer, unassigned)
Output: 2.38

Task: Quick one: [2H]C([2H])(NC(=O)C[C@H]1S[C@@H](c2ccc(C#Cc3ccccc3)cc2)N(c2cccc(C(N)=O)c2)C1=O)C([2H])([2H])c1ccc(OC)c(OCC)c1 (single isomer, unassigned)
Output: 1.71

Task: And what about the molecule `[2H]C([2H])(NC(=O)C[C@H]1S[C@@H](c2ccc(C#Cc3ccccc3)cc2)N(c2cccc(C(N)=O)c2)C1=O)C([2H])([2H])c1ccc(OC)c(OC)c1` ?
Output: 1.38

Task: Would you kindly repeat that for [2H]c1c([2H])c([2H])c(C#Cc2ccc([C@@H]3S[C@H](CC(=O)NC([2H])([2H])C([2H])([2H])c4ccc(OC)c(OCC)c4)C(=O)N3c3cccc(C(N)=O)c3)cc2)c([2H])c1[2H] (single isomer, unassigned) ?
Output: 1.49

Task: Try this molecule next: [2H]C([2H])(NC(=O)C[C@H]1S[C@@H](c2ccc(C#Cc3ccccc3)cc2)N(c2cccc(C(N)=O)c2)C1=O)C([2H])([2H])c1ccc(O)c(OC)c1 (single isomer, unassigned)
Output: 1.49

Task: Now consider [2H]C([2H])([2H])Oc1ccc(CCNC(=O)C[C@H]2S[C@@H](c3ccc(C#Cc4ccccc4)cc3)N(c3cccc(C(N)=O)c3)C2=O)cc1OCC (single isomer, unassigned) .
Output: 1.75

Task: Query [2H]c1c([2H])c([2H])c(C#Cc2c([2H])c([2H])c([C@H]3N(c4cccc(C(N)=O)c4)C(=O)[C@@H](CC(=O)NC([2H])([2H])C([2H])([2H])c4ccc(OC([2H])([2H])[2H])c(OCC)c4)[S@@+]3[O-])c([2H])c2[2H])c([2H])c1[2H] (single isomer, unassigned) next
Output: 1.26

Task: Now consider CCOc1cc(CCNC(=O)C[C@H]2S[C@@H](c3ccc(C#Cc4ccccc4)cc3)N(c3cccc(C(N)=O)c3)C2=O)ccc1OC [Reference compound, reference compound] .
Output: 2.08

Task: Then what about the molecule `[2H]C([2H])([2H])Oc1ccc(C([2H])([2H])C([2H])([2H])NC(=O)C[C@H]2S[C@@H](c3ccc(C#Cc4ccccc4)cc3)N(c3cccc(C(N)=O)c3)C2=O)cc1OC` ?
Output: 1.46

Task: // next record [2H]c1c([2H])c([2H])c(C#Cc2ccc([C@@H]3S[C@H](CC(=O)NC([2H])([2H])C([2H])([2H])c4ccc(OC([2H])([2H])[2H])c(OCC)c4)C(=O)N3c3cccc(C(N)=O)c3)cc2)c([2H])c1[2H] (single isomer, unassigned)
Output: 1.36

Task: For [2H]C([2H])([2H])Oc1ccc(C([2H])([2H])C([2H])([2H])NC(=O)C[C@H]2S[C@@H](c3ccc(C#Cc4ccccc4)cc3)N(c3cccc(C(N)=O)c3)C2=O)cc1OCC (single isomer, unassigned) then?
Output: 1.65
